biological target: HCV polymerase (Hepatitis C virus genotype 1b); construct: a region encoding NS5B (591 amino acids; J Virol 1991 Mar, 65(3), 1105-13) was amplified by PCR; 6 His (N); made in house; host or cells: Escherichia coli; experiment: biochemical; conditions: read-out: HCV polymerase inhibitory activity IC50
Sequence (P26663 2420-3010): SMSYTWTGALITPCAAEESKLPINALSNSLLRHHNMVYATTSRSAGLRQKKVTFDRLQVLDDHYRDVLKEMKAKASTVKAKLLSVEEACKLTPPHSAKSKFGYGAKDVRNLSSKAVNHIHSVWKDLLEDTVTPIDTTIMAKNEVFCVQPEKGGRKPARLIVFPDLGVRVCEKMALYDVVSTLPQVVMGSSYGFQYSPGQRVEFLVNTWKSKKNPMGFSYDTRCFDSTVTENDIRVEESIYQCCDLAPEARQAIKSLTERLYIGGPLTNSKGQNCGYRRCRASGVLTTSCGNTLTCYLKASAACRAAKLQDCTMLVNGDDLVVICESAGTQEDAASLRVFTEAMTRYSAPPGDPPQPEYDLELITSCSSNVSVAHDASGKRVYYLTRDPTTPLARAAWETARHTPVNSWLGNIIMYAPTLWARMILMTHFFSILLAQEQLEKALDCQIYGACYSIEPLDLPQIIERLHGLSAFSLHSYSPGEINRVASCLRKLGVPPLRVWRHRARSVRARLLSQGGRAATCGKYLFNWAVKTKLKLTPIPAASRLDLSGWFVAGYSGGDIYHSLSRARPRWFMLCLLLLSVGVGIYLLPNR
pIC50: −log10 of the molar value. Structures can show the parent of a compound that is named as a salt.

compound: Cc1cnc(-c2ccc(Br)c(COc3ccc(-c4nc5cc(C(=O)O)ccc5n4C4CCCCC4)cc3)c2)s1 [Example 364, hydrochloride]
pIC50: 6.92
--
compound: Cc1ccc(C(Oc2ccc(-c3nc4cc(C(=O)O)ccc4n3C3CCCCC3)cc2)c2ccc(C)cc2)cc1
pIC50: 6.92
--
compound: O=C(O)c1ccc2c(c1)nc(-c1ccc(OC(c3ccc(F)cc3)c3ccc(F)cc3)cc1)n2C1CCCCC1
pIC50: 7.15

###

biological target: HCV polymerase (Hepatitis C virus genotype 1b); construct: a region encoding NS5B (591 amino acids; J Virol 1991 Mar, 65(3), 1105-13) was amplified by PCR; 6 His (N); made in house; host or cells: Escherichia coli; assay: biochemical; conditions: read-out: HCV polymerase inhibitory activity IC50
pIC50: −log10 of the molar value. Structures can show the parent of a compound that is named as a salt.

compound: O=C(O)c1ccc2c(c1)nc(-c1ccc(Oc3ccccc3OCC3CCNCC3)cc1)n2C1CCCCC1 [Example 160, hydrochloride]
pIC50: 6.62

compound: O=C(O)c1ccc2c(c1)nc(-c1ccc(OCc3cc(F)ccc3-c3ccc(Cl)cc3)cc1)n2C1CCCCC1 [Example 188]
pIC50: 7.42

compound: Cc1cnc(-c2ccc(Br)c(COc3ccc(-c4nc5cc(C(=O)O)ccc5n4C4CCCCC4)cc3)c2)o1 [Example 363, hydrochloride]
pIC50: 6.96

compound: O=C(O)CCc1ccc(-c2ccc(Cl)cc2COc2ccc(-c3nc4cc(C(=O)O)ccc4n3C3CCCCC3)cc2)cc1 [Example 293]
pIC50: 7.47

compound: O=C(O)c1ccc2c(c1)nc(-c1ccc(Oc3cccc(Br)c3)cc1)n2C1CCCCC1 [Example 2]
pIC50: 7.10

compound: O=C(O)c1ccc2c(c1)nc(-c1ccc(OCc3ccccc3)cc1)n2C1CCCC1 [Example 12]
pIC50: 6.22

compound: CN(C)C(=O)COc1ccccc1Oc1ccc(-c2nc3cc(C(=O)O)ccc3n2C2CCCCC2)cc1 [Example 191]
pIC50: 6.37

compound: CC(=O)N1CCC(COc2cccc(Oc3ccc(-c4nc5cc(C(=O)O)ccc5n4C4CCCCC4)cc3)c2)CC1 [Example 176]
pIC50: 7.28

compound: O=C(O)c1ccc2c(c1)nc(-c1ccc(OCc3ccc(Cl)cc3)cc1)n2C1CCCC1 [Example 45]
pIC50: 6.40
